# Tested on: HaCaT
# MEASUREMENT_DESCRIPTION: Cell cycle arrest in human HaCaT cells harboring […] p53 assessed as mitotic index at 10 uM measured after 48 hrs by Hoechst staining based fluorescence assay (reference value: 2.6)
# Type: functional
The reader will find reported Activity_index values listed item by item below.
Please respond with just the number, no unit label.

COMPOUND_STRUCTURE: COc1cccc(/C=C/C(=O)c2c(O)cc(OC)cc2OC)c1
Activity_index: 2.6
--
COMPOUND_STRUCTURE: COc1cc(O)c(C(=O)/C=C/c2ccccc2OC)c(OC)c1
Activity_index: 3.1
--
COMPOUND_STRUCTURE: COc1cc(O)c(C(=O)/C=C/c2ccccc2)c(OC)c1
Activity_index: 3.4

Lookup: Which Activity_index is listed for COc1cc(OC)c(C(=O)/C=C/c2ccc(Br)cc2)c(OC)c1 ?
Found: 19

Lookup: Now the compound COc1cc(O)c(C(=O)/C=C/c2ccccc2SC)c(OC)c1
Found: 3.1

Lookup: Now the same for COc1cc(OC)c(C(=O)/C=C/c2ccc(F)cc2)c(OC)c1
Found: 10.7

Lookup: Proceed to COc1cc(OC)c(C(=O)/C=C/c2ccccc2SC)c(OC)c1
Found: 18.9

Lookup: How about this compound: COc1cccc(/C=C/C(=O)c2c(OC)cc(OC)cc2OC)c1
Found: 17.5

Lookup: And what about the compound COc1cc(OC)c(C(=O)/C=C/c2ccccc2)c(OC)c1 ?
Found: 18.3

Lookup: Oc1cccc(-c2nc(N3CCOCC3)c3oc4ncccc4c3n2)c1 , same question.
Found: 0.9

---

Recorded Ratio IC50 values for a group of compounds are listed next.
# MEASUREMENT_DESCRIPTION: Selectivity index, ratio of IC50 for human fibroblasts to IC50 for human HaCaT cells

See these solved cases before continuing.
COMPOUND_STRUCTURE: Oc1cccc(-c2nc(N3CCOCC3)c3oc4ncccc4c3n2)c1
Ratio IC50: >7.1

COMPOUND_STRUCTURE: COc1cc(OC)c(C(=O)/C=C/c2ccc(F)cc2)c(OC)c1
Ratio IC50: >6.6

COMPOUND_STRUCTURE: COc1cc(O)c(C(=O)/C=C/c2ccccc2SC)c(OC)c1
Ratio IC50: 3.4

COMPOUND_STRUCTURE: COc1cccc(/C=C/C(=O)c2c(OC)cc(OC)cc2OC)c1
Ratio IC50: >9.4

Please examine the following record next.
Lookup: Which measured Ratio IC50 value corresponds to COc1cc(O)c(C(=O)/C=C/c2ccccc2)c(OC)c1 ?
Found: 1.9

---

# System: PC-3
# MEASUREMENT_DESCRIPTION: Induction of apoptosis in human PC3 cells harboring p53 mutant assessed as increase in early apoptosis at 2 times IC50 after 48 hrs by YoPro/propidium iodide/Hoechst staining based assay
# Assay type: functional, cell-based
The source made the active and inactive calls. The rule behind the calls is not given here.
Write down one outcome, taken from y (active), n (inactive)

See these solved cases before continuing.
MOLECULE: COc1cc(O)c(C(=O)/C=C/c2ccc(Br)cc2)c(OC)c1
LABEL_VALUE: n

MOLECULE: COc1cc(OC)c(C(=O)/C=C/c2ccccc2)c(OC)c1
LABEL_VALUE: y

MOLECULE: COc1cc(O)c(C(=O)/C=C/c2ccccc2)c(OC)c1 [FLAVOKAWAIN B]
LABEL_VALUE: y

MOLECULE: COc1cc(OC)c(C(=O)/C=C/c2ccc(Br)cc2)c(OC)c1
LABEL_VALUE: y

MOLECULE: COc1cccc(/C=C/C(=O)c2c(OC)cc(OC)cc2OC)c1
LABEL_VALUE: y

Kindly review the next molecule as well.
Lookup: Recorded test outcome, item COc1cc(O)c(C(=O)/C=C/c2ccccc2SC)c(OC)c1
Found: y
